Assign pEC50 to each entry below.
# measured.on: ryanodine receptor, isoform 1 (RyR1) (Oncorhynchus mykiss, UniProt A0A8C7UX14)
# Sequence (A0A8C7UX14 1-5031): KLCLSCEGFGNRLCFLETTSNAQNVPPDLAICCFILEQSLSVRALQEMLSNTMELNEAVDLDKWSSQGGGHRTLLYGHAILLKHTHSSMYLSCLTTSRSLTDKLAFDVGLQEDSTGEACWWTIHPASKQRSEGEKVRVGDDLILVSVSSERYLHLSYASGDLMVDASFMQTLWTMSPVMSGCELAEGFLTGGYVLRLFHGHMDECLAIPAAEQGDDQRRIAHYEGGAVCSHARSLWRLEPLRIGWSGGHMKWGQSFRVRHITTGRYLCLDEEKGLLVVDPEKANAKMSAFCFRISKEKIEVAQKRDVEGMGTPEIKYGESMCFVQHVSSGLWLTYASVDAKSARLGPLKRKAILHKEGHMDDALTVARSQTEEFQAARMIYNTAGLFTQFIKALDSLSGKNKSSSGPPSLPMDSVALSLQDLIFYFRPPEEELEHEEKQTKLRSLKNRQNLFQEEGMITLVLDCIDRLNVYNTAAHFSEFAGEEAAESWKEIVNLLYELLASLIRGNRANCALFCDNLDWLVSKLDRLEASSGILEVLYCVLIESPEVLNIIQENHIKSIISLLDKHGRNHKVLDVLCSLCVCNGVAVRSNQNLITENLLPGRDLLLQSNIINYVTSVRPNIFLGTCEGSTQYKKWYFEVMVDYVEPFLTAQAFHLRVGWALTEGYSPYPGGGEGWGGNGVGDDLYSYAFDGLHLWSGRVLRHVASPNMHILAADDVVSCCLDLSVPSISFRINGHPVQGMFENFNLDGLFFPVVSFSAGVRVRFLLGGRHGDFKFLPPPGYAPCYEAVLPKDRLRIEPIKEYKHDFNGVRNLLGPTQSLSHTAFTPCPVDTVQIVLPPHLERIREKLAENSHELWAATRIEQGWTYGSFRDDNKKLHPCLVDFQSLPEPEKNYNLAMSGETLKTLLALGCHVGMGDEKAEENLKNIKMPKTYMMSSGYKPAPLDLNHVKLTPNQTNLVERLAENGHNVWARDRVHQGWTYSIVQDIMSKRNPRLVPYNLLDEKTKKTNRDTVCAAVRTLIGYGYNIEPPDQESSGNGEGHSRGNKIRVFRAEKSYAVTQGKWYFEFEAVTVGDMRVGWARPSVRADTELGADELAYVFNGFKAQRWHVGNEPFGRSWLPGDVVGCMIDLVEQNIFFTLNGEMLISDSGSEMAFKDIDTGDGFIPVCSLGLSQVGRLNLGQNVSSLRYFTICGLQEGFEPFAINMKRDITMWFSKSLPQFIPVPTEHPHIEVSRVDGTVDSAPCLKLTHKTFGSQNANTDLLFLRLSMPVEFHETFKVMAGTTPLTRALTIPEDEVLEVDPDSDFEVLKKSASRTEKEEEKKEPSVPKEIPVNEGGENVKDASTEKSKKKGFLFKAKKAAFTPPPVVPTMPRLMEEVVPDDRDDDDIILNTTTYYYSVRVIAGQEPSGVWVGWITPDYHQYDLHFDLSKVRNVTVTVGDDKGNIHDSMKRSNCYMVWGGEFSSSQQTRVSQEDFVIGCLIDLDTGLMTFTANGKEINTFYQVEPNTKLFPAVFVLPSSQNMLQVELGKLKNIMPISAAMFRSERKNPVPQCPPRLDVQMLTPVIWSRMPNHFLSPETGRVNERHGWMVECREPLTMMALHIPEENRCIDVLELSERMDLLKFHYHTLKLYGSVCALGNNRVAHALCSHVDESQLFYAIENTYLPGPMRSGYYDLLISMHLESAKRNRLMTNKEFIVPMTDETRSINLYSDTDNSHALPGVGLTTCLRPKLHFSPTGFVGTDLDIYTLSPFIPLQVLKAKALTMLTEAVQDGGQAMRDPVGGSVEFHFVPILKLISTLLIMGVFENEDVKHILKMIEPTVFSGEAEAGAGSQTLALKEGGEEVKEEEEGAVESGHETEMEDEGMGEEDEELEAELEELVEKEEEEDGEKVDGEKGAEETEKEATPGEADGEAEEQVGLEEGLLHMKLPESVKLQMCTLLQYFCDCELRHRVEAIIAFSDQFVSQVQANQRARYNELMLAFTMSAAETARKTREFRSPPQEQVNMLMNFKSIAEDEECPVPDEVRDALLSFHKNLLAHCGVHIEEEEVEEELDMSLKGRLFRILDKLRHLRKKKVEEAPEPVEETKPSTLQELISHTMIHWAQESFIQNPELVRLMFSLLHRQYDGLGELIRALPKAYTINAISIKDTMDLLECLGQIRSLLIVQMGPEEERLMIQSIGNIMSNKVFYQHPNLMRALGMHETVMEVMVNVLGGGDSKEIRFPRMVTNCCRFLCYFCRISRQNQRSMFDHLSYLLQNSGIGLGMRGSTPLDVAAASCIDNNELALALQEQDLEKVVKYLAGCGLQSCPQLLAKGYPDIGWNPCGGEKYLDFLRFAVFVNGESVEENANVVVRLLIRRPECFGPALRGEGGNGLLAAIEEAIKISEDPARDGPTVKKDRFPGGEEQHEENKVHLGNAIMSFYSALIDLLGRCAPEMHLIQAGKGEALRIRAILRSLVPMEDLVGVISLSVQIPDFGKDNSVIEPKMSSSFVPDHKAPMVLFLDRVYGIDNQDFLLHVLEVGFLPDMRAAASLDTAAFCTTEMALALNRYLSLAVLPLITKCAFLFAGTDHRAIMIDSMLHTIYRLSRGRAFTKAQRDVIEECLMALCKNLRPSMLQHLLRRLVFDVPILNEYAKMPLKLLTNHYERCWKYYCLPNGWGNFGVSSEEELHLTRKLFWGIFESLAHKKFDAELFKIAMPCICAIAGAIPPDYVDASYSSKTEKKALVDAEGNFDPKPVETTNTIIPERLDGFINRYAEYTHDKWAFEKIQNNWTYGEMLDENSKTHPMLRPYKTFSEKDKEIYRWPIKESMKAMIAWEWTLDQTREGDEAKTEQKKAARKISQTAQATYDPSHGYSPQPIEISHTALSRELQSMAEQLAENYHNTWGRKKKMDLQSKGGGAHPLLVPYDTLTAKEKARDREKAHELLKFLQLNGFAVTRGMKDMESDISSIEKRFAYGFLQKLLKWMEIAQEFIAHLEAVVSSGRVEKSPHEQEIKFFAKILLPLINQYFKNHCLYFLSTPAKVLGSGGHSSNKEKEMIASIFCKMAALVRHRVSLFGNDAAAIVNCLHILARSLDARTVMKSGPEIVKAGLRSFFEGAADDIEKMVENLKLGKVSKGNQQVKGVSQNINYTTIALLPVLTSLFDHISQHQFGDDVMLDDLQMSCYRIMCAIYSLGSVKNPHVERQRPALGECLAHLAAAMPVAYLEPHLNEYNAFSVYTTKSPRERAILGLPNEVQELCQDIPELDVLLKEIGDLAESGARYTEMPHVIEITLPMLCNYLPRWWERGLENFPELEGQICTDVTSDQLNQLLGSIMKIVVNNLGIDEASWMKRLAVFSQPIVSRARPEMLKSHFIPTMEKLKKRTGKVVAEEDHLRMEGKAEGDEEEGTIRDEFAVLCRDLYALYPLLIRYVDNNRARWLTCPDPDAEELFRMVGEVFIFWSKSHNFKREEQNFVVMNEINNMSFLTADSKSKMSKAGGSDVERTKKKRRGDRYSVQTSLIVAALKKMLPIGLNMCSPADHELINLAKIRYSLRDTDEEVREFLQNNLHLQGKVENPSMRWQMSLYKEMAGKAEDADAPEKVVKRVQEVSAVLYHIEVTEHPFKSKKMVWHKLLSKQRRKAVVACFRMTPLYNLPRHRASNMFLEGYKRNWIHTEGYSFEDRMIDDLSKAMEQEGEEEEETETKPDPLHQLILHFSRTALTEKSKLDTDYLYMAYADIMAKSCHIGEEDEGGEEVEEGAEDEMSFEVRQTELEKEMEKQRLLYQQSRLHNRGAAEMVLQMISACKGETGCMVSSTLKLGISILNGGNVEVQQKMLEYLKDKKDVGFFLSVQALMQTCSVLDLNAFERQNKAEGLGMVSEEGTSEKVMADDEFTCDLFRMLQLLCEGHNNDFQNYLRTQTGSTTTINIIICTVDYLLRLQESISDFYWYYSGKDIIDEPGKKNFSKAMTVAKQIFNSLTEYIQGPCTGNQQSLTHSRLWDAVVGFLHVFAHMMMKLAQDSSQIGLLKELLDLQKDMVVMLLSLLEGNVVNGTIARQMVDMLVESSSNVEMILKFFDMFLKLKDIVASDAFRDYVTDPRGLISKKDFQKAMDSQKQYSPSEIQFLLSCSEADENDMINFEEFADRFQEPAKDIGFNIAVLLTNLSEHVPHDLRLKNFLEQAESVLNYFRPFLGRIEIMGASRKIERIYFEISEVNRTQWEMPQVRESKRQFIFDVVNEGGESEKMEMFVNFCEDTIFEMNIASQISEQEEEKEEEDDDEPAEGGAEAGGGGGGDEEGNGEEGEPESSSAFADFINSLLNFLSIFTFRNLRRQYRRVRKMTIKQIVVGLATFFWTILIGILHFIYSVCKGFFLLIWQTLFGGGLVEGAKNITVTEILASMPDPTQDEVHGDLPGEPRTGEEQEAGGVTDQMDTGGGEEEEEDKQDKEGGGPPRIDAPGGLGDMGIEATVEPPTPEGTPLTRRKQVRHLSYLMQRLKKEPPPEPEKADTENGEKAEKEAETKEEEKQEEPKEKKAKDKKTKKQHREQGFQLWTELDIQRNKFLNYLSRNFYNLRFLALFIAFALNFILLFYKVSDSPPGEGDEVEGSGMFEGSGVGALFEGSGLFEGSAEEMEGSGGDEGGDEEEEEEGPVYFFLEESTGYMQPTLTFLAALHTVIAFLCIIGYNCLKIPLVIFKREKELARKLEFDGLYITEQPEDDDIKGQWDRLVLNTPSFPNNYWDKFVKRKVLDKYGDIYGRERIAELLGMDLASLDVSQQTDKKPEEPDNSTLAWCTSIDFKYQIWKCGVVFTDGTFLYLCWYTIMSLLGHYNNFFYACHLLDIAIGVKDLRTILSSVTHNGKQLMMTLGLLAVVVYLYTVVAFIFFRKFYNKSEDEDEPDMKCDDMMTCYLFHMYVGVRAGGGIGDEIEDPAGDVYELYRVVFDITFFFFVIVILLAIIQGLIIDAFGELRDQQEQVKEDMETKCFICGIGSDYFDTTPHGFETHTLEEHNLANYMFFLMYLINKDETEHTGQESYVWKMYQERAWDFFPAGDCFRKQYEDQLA
# Assay type: binding, rainbow trout (Oncorhynchus mykiss)
# conditions.used: sigmoidal fit of enhanced [3H]Ry binding; PCB 0–20 μM; (−) inactive
Give bare numbers, as −log10 of the molar value.

Answered examples (2):
structure=Clc1ccc(Cl)c(-c2cccc(Cl)c2Cl)c1 reading=5.35
structure=Clc1cc(Cl)c(-c2c(Cl)c(Cl)cc(Cl)c2Cl)cc1Cl reading=5.89

Here is another molecule to look at.
Recorded pEC50 (molecule Clc1cc(Cl)c(-c2c(Cl)ccc(Cl)c2Cl)cc1Cl ): 6.09

---

Assign Comparison (Ratio) to each entry below.
# measured.on: ryanodine receptor, isoform 1 (RyR1) (Oncorhynchus mykiss, UniProt A0A8C7UX14)
# Format: binding, rainbow trout (Oncorhynchus mykiss)
# conditions.used: Fish RPF compared to Mammal RPF
Give bare numbers.

Answered examples (5):
structure=Clc1cc(-c2cc(Cl)c(Cl)c(Cl)c2Cl)c(Cl)c(Cl)c1Cl reading=0.09
structure=Clc1ccc(Cl)c(-c2cc(Cl)c(Cl)cc2Cl)c1 reading=1.64
structure=Clc1ccc(Cl)c(-c2cc(Cl)ccc2Cl)c1 reading=0.69
structure=Clc1cc(Cl)c(-c2cc(Cl)c(Cl)c(Cl)c2Cl)cc1Cl reading=0.17
structure=Clc1ccc(-c2c(Cl)ccc(Cl)c2Cl)c(Cl)c1Cl reading=0.10

I'm hoping you can list Comparison (Ratio) for every compound here, please.
1. Clc1ccc(-c2cc(Cl)c(Cl)cc2Cl)c(Cl)c1
2. Clc1ccc(Cl)c(-c2c(Cl)ccc(Cl)c2Cl)c1
3. Clc1cc(Cl)c(-c2cc(Cl)c(Cl)cc2Cl)cc1Cl

output:
0.35
1.00
0.41

I'm hoping you can list Comparison (Ratio) for every compound here, please.
1. Clc1cccc(-c2cccc(Cl)c2Cl)c1
2. Clc1cc(Cl)c(-c2c(Cl)c(Cl)cc(Cl)c2Cl)cc1Cl
3. Clc1ccc(Cl)c(-c2c(Cl)c(Cl)cc(Cl)c2Cl)c1
4. Clc1cc(Cl)c(-c2c(Cl)cc(Cl)c(Cl)c2Cl)cc1Cl

output:
0.05
0.16
0.45
0.16

I'm hoping you can list Comparison (Ratio) for every compound here, please.
1. Clc1ccc(-c2ccc(Cl)c(Cl)c2)c(Cl)c1
2. Clc1cc(Cl)c(-c2c(Cl)ccc(Cl)c2Cl)cc1Cl
3. Clc1ccc(Cl)c(-c2cccc(Cl)c2Cl)c1
4. Clc1ccc(Cl)c(-c2c(Cl)ccc(Cl)c2Cl)c1Cl

output:
1. 0.44
2. 1.45
3. 0.29
4. 0.63

---

# Test system: RyR1
# run.description: Mammalian RyR1 [3H]ryanodine binding
# Parameters: species or system rabbit
# conditions.used: relative potency factor, EC2X relative to PCB 95; from literature EC2X values
Short version: Mammal RPF at least 0.4 is fulfilled, less is not fulfilled.

Worked set:
structure=Clc1ccc(-c2ccc(Cl)c(Cl)c2)cc1Cl classification="not fulfilled"
structure=Clc1ccc(Cl)c(-c2c(Cl)ccc(Cl)c2Cl)c1 classification=fulfilled
structure=Clc1ccc(Cl)c(-c2c(Cl)c(Cl)cc(Cl)c2Cl)c1 classification=fulfilled
structure=Clc1cccc(-c2cccc(Cl)c2Cl)c1 classification="not fulfilled"

Here's the next entry for you.
input: Please indicate if the recorded Mammal RPF for Clc1ccc(-c2c(Cl)ccc(Cl)c2Cl)cc1Cl meets or exceeds 0.4.
output: not fulfilled

---

Assign Fish RPF to each entry below.
# measured.on: ryanodine receptor, isoform 1 (RyR1) (Oncorhynchus mykiss)
# Type: binding, rainbow trout (Oncorhynchus mykiss)
# conditions.used: relative potency factor, Q20 relative to PCB 95; (−) inactive
Give bare numbers.

structure=Clc1cc(-c2cc(Cl)c(Cl)c(Cl)c2Cl)c(Cl)c(Cl)c1Cl assay_readout="Fish RPF" reading=0.04
structure=Clc1ccc(Cl)c(-c2cc(Cl)ccc2Cl)c1 assay_readout="Fish RPF" reading=0.31
structure=Clc1cc(Cl)c(-c2c(Cl)ccc(Cl)c2Cl)cc1Cl assay_readout="Fish RPF" reading=0.96

I'm hoping you can list Fish RPF for every compound here, please.
1. Clc1ccc(-c2c(Cl)ccc(Cl)c2Cl)c(Cl)c1Cl
2. Clc1ccc(Cl)c(-c2c(Cl)c(Cl)cc(Cl)c2Cl)c1

output:
1: 0.02; 2: 0.20

---

Assign Mammal RPF to each entry below.
# Test system: RyR1
# run.description: Mammalian RyR1 [3H]ryanodine binding
# Set-up: species or system rabbit
# conditions.used: relative potency factor, EC2X relative to PCB 95; from literature EC2X values

structure=Clc1ccc(-c2ccc(Cl)cc2Cl)cc1 reading=0.04
structure=Clc1cc(-c2cc(Cl)c(Cl)c(Cl)c2Cl)c(Cl)c(Cl)c1Cl reading=0.44
structure=Clc1cc(Cl)c(-c2c(Cl)c(Cl)cc(Cl)c2Cl)cc1Cl reading=0.38

I'm hoping you can list Mammal RPF for every molecule here, please.
1. Clc1cc(Cl)c(-c2cc(Cl)c(Cl)c(Cl)c2Cl)cc1Cl
2. Clc1ccc(Cl)c(-c2cccc(Cl)c2Cl)c1
3. Clc1ccc(-c2ccc(Cl)c(Cl)c2)c(Cl)c1

output:
[0.23, 0.28, 0.09]

---

# measured.on: ryanodine receptor, isoform 1 (RyR1) (Oncorhynchus mykiss)
# Format: binding, rainbow trout (Oncorhynchus mykiss)
# conditions.used: relative potency factor, Q20 relative to PCB 95; (−) inactive
Assign Fish RPF to each entry below.
Numbers only.

structure=Clc1ccc(-c2ccc(Cl)c(Cl)c2)c(Cl)c1 reading=0.04
structure=Clc1ccc(Cl)c(-c2c(Cl)ccc(Cl)c2Cl)c1Cl reading=0.60
structure=Clc1cccc(-c2cccc(Cl)c2Cl)c1 reading=0.01

I'm hoping you can list Fish RPF for every compound here, please.
1. Clc1cc(Cl)c(-c2cc(Cl)c(Cl)cc2Cl)cc1Cl
2. Clc1ccc(Cl)c(-c2c(Cl)ccc(Cl)c2Cl)c1
3. Clc1ccc(Cl)c(-c2cc(Cl)c(Cl)cc2Cl)c1

output:
1. 0.07
2. 1.00
3. 0.42

---

# measured.on: ryanodine receptor, isoform 1 (RyR1) (Oncorhynchus mykiss, UniProt A0A8C7UX14)
# Format: binding, rainbow trout (Oncorhynchus mykiss)
# conditions.used: single compound
assay.readout: pEC50
One number for each entry, as −log10 of the molar value.

Recorded pEC50 (molecule Brc1ccc(Oc2cc(Br)ccc2Br)c(Br)c1 ): 5.46

---

# Tested on: RyR1
# run.description: Mammalian RyR1 [3H]ryanodine binding
# Parameters: species or system rabbit
# conditions.used: relative potency factor, EC2X relative to PCB 95; from literature EC2X values
Short version: Mammal RPF at least 0.2 is yes, less is no.

input: Please indicate if the recorded Mammal RPF for Clc1ccc(-c2c(Cl)ccc(Cl)c2Cl)c(Cl)c1Cl meets or exceeds 0.2.
output: yes

---

# measured.on: ryanodine receptor, isoform 1 (RyR1) (Oncorhynchus mykiss, UniProt A0A8C7UX14)
# Assay type: binding, rainbow trout (Oncorhynchus mykiss)
# conditions.used: relative potency factor, Q20 relative to PCB 95; (−) inactive
assay.readout: Fish RPF
Answers are plain numbers.

Answered examples (2):
structure=Clc1cc(Cl)c(-c2c(Cl)c(Cl)cc(Cl)c2Cl)cc1Cl measured_on="ryanodine receptor, isoform 1 (RyR1) (Oncorhynchus mykiss, UniProt A0A8C7UX14)" assay_readout="Fish RPF" reading=0.06
structure=Clc1ccc(-c2cc(Cl)c(Cl)cc2Cl)c(Cl)c1 measured_on="ryanodine receptor, isoform 1 (RyR1) (Oncorhynchus mykiss, UniProt A0A8C7UX14)" assay_readout="Fish RPF" reading=0.03

I'm hoping you can list Fish RPF for every compound here, please.
1. Clc1cc(Cl)c(-c2c(Cl)cc(Cl)c(Cl)c2Cl)cc1Cl
2. Clc1ccc(Cl)c(-c2cccc(Cl)c2Cl)c1

output:
1: 0.06; 2: 0.08

---

# measured.on: ryanodine receptor, isoform 1 (RyR1) (Oncorhynchus mykiss)
# Type: binding, rainbow trout (Oncorhynchus mykiss)
# conditions.used: linear regression of log-probit plot; Mean ± SEM; (−) inactive
assay.readout: Log-Probit Slope
Numbers only.

Answered examples (4):
structure=Clc1cc(-c2cc(Cl)c(Cl)c(Cl)c2Cl)c(Cl)c(Cl)c1Cl reading=8.94
structure=Clc1ccc(Cl)c(-c2cccc(Cl)c2Cl)c1 reading=4.20
structure=Clc1ccc(Cl)c(-c2cc(Cl)c(Cl)cc2Cl)c1 reading=1.83
structure=Clc1cc(Cl)c(-c2c(Cl)cc(Cl)c(Cl)c2Cl)cc1Cl reading=1.58

I'm hoping you can list Log-Probit Slope for every molecule here, please.
1. Clc1ccc(-c2c(Cl)ccc(Cl)c2Cl)cc1Cl
2. Clc1ccc(Cl)c(-c2c(Cl)c(Cl)cc(Cl)c2Cl)c1

output:
[2.60, 1.91]

I'm hoping you can list Log-Probit Slope for every molecule here, please.
1. Clc1cccc(-c2cccc(Cl)c2Cl)c1
2. Clc1cc(Cl)c(-c2cc(Cl)c(Cl)c(Cl)c2Cl)cc1Cl
3. Clc1ccc(Cl)c(-c2c(Cl)ccc(Cl)c2Cl)c1
4. Clc1cc(Cl)c(-c2cc(Cl)c(Cl)cc2Cl)cc1Cl
5. Clc1cc(Cl)c(-c2c(Cl)c(Cl)cc(Cl)c2Cl)cc1Cl

output:
1: 2.83; 2: 1.84; 3: 2.15; 4: 2.25; 5: 3.05
